Assay: BRlogD chromatographic lipophilicity (octanol/water surrogate)
Details: RP-HPLC, surrogate of octanol/water
valueType: chromatographic logD

{"columns": ["compound", "chromatographic logD"],
 "data": [
  ["Cc1ncsc1-c1ccc([C@H](C)NC(=O)[C@@H]2C[C@@H](O)CN2C(=O)[C@@H](NC(=O)CCCCCC(=O)N2CCN(CC[C@H](CSc3ccccc3)Nc3ccc(S(=O)(=O)NC(=O)c4ccc(N5CCN(CC6=C(c7ccc(Cl)cc7)CCC(C)(C)C6)CC5)cc4)cc3S(=O)(=O)C(F)(F)F)CC2)C(C)(C)C)cc1 [DT2216]", "> 6"]
]}

# compound O=C1CC[C@H](N2Cc3cc(N4CCN(CC5CCN(c6ccc([C@@H]7c8ccc(O)cc8CC[C@@H]7c7ccccc7)cc6)CC5)CC4)ccc3C2=O)C(=O)N1 [ARV-471, vepdegestrant] ; its chromatographic logD = 4.73
